Cited source: paper PMC3597726

# assayOverview: Oral pharmacokinetics in male ICR mice
# conditionInfo: oral (ig) 25 mg/kg, plasma
property: Cmax
Give me the value, and tack the unit on after it.

Can you share its Cmax? I mean this compound: Cc1ccc(CN2CC3CCCN4CCCC(C2CCCC(=O)O)C34)cc1 (centres unmarked)
13.2 µM

Same question for C=Cc1ccc(CN2C[C@@H]3CCCN4CCC[C@@H]([C@H]34)[C@H]2CCCC(=O)O)cc1 please.
23.2 µM

====

# System: Huh7.5 cells
# assayOverview: Cytotoxicity assay (MTT) in Huh7.5 cells
# Assay type: cell-based, Human
# conditionInfo: cytotoxicity, Huh7.5 cells, MTT, 72 h; read-out: CC50
property: CC50 (µM)
Numeric answer only, unit µM assumed.

What value of CC50 has been reported for the following compound? C=Cc1ccc(CN2C[C@@H]3CCCN4CCC[C@@H]([C@H]34)[C@H]2CCCC(=O)O)cc1 [Compound 7m, 12-N-4-Vinylbenzyl matrinic acid]
184
